MOR agonist activity ([35S]GTPγS binding), FLNA-Binding Compound as Agonist 0.1 μM values for the molecules below.
Tested on: mu opiate receptor (MOR)
Assay: MOR agonist activity using [35S]GTPγS binding assay in striatal membranes
Type: biochemical
Conditions: 0.1 μM compound
valueKind: MOR agonist activity ([35S]GTPγS binding), FLNA-Binding Compound as Agonist 0.1 μM (%)

| molecule | recordedMeasurement |
| --- | --- |
| COc1ccc(N2CCN(CC(O)COC3CC(C)CCC3C(C)C)CC2)c(OC)c1 (stereo not drawn) | 149.3 |
| CC1CCC(C(C)C)C(OCC(O)CN2CCC(=O)C(C)C2)C1 (stereo not drawn) | 115.6 |
| CC1CCC(C(C)C)C(OCC(O)CN2CCN(CCc3ccccc3)CC2)C1 (stereo not drawn) | 168.6 |
| CC1CCC(C(C)C)C(OCC(O)CN2CCCC2=O)C1 (stereo not drawn) | 120.6 |
| CC1CCC(C(C)C)C(OCC(O)CN2CCc3ccccc32)C1 (stereo not drawn) | 197.6 |
| CC1CN(CC(O)COc2ccccc2)CC(C)O1 (stereo not drawn) | 58.6 |
| CCN(CC)CC(O)COC1CC(C)CCC1C(C)C (stereo not drawn) | 226.9 |
| CC1CCC(C(C)C)C(OCC(O)CN2CCN(CCCN3CCOCC3)CC2)C1 (stereo not drawn) | 140.7 |
| CC1CCC(C(C)C)C(OCC(O)CN2CC(C)CC(C)C2)C1 (stereo not drawn) | 163.8 |
